assay: Tmax in ICR mouse at 2 mg/kg, po measured upto 24 hrs by LC-MS/MS analysis
Type: ADME, organism-based
testContext: in vivo
parameter: Tmax (min)
Answers are plain numbers, in min.

Task: Can you share its Tmax? I mean this molecule: CNC1CN(c2nc3ncc(Br)cc3n3nnnc23)C1
Result: 30

###

assay: Protein binding in mouse plasma
Format: ADME, cell-free
testContext: read-out: PPB (converted)
parameter: fraction unbound
Give bare numbers.

Task: Query: fraction unbound; subject: CNC1CN(c2nc3ncc(Br)cc3n3nnnc23)C1
Result: 0.348

###

For each entry below, report its AUC at 24 h value.
assay: AUC (all) in ICR mouse at 50 mg/kg, po measured upto 24 hrs by LC-MS/MS analysis
Format: ADME, organism-based
Parameters: route oral, dose 50 mg/kg, time <=24
testContext: in vivo
Give bare numbers, in ng·h/mL.

Here's what some known entries look like.
CN1CCN(c2nc3ccc(Cl)cc3n3cnnc23)CC1 ... 1680
CNC1CN(c2nc3ncc(Br)cc3n3nnnc23)C1 ... 62600

Please turn your attention to the following entry.
Task: Quick check: AUC at 24 h of CN1CCN(c2nc3ncc(Cl)cc3n3cnnc23)CC1 ?
Result: 23600

###

Kindly state solubility at 2 h for each of the entries shown.
assay: Solubility of compound in SGF at pH 1.2 incubated for 2 hrs by UPLC-UV analysis
Assay type: physicochemical

Here are 3 molecules together with their reported answers.
CN1CCN(c2cc3ccc(Cl)cc3n3cnnc23)CC1 ... > 2000 µg/mL
CN1CCN(c2nc3nc(Cl)c(Cl)cc3n3cnnc23)CC1 ... 1950 µg/mL
Cc1ccc2nc(N3CCN(C)CC3)c3nncn3c2c1 ... > 2000 µg/mL

Task: I would be grateful if you could share the reported solubility at 2 h for CN1CCN(c2nc3ccc(Cl)cc3n3cnnc23)CC1 .
Result: > 2000 µg/mL

###

assay: Solubility of compound in FaSSIF at pH 6.5 incubated for 0.5 hrs by UPLC-UV analysis
parameter: solubility at 0.5 h

CN1CCN(c2nc3ccc([N+](=O)[O-])cc3n3cnnc23)CC1 ... 80.2 µg/mL
CN1CCN(c2nc3ncc(Cl)cc3n3cnnc23)CC1 ... 1240 µg/mL
CN1CCN(c2nc3cccnc3n3cnnc23)CC1 ... > 2000 µg/mL
CN1CCN(c2nc3ncc(Br)cc3n3cnnc23)CC1 ... 679 µg/mL

Let's switch to this compound now.
Task: May I ask what solubility at 0.5 h has been recorded for CN1CCN(c2nc3ncccc3n3cnnc23)CC1 ?
Result: > 2000 µg/mL

###

assayedSystem: Histamine H3 receptor (Homo sapiens, UniProt Q9Y5N1)
Sequence (Q9Y5N1 whole entry): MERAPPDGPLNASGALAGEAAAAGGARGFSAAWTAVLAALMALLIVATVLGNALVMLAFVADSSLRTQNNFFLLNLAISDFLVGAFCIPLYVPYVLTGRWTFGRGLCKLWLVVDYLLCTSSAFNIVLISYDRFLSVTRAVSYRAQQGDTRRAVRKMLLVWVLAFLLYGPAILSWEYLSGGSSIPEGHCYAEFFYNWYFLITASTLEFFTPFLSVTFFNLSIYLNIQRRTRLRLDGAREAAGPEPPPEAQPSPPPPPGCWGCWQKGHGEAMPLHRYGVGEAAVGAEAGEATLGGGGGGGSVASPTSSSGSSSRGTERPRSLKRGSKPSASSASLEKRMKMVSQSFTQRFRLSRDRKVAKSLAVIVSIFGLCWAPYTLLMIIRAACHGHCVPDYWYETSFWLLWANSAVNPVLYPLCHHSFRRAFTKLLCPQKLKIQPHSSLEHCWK
assay: Displacement of [3H]-N-alpha-methylhistamine from recombinant human histamine H3 receptor expressed in CHO-K1 cell membranes measured after 30 mins by microbeta scintillation counting method
So I've got a bunch of molecules here, and I need their pIC50 values.
Numbers only, as −log10 of the molar value.

CN1CCN(c2nc3ncc(Cl)cc3n3nnnc23)CC1 ... 4.14

Field: pIC50. Fill in for each record below.
1. Clc1cnc2nc(N3CCN4CCCC4C3)c3nncn3c2c1 (stereo not given)
2. CN1CCN(c2nc3ncc(Br)cc3n3cnnc23)CC1
3. CN1CCCN(c2nc3ncc(Cl)cc3n3cnnc23)CC1
4. CN1CCN(c2nc3ccc([N+](=O)[O-])cc3n3cnnc23)CC1

Result:
1: 4.62; 2: 4.15; 3: 4.96; 4: 4.39

Give me pIC50 for each of these molecules, listed below.
1. CN1CCN(c2nc3nc(C#N)c(Cl)cc3n3cnnc23)CC1
2. Cc1c(Br)cnc2nc(N3CCN(C)CC3)c3nncn3c12

Result:
4.44
4.62
